# credit: PubChem BioAssay AID504847

Target: Vitamin D3 receptor (Homo sapiens) (UniProt P11473)
Sequence (P11473 whole entry, looked up): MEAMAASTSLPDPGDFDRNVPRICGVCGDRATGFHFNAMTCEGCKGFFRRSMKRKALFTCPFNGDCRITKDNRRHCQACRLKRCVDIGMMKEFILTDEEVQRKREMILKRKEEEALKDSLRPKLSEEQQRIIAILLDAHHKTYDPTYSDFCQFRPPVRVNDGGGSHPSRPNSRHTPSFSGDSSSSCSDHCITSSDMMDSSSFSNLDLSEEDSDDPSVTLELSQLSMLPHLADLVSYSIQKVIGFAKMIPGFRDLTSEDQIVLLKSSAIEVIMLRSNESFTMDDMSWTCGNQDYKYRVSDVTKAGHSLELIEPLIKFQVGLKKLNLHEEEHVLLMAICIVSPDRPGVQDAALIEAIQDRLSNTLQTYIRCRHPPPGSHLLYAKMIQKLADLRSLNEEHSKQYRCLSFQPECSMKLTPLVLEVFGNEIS
Assay: Inhibitors of the vitamin D receptor (VDR): qHTS; note: % is set by controls: 0 for no effect and ±100 for the full control effect
Conditions: VDR-SRC2-3 peptide fluorescence polarization, 2 h; active compounds read low
Source text: The vitamin D receptor (VDR) is a ligand-activated transcription factor and is partially responsible for the regulation of the endocrine system. […] In a collaboration between the University of Wisconsin, Milwaukee and the NIH Chemical Genomics Center (NCGC) a HTS-compatible enzymatic assay was developed. The assay uses fluorescence polarization as its read-out to measure the inhibition between VDR and coregulator peptide SRC2-3 exerted by small molecules. […]
Hit rate of the full screen: of about 400,000 compounds, about 3,700 (0.93%) were called active. Roughly 3% stayed inconclusive and do not appear here. Only a selection was taken, and actives are over-represented in it overall.
metric: max response, negative = inhibition (%)
Unit % implied. Number only.

A selection of reference data follows.
CN1CCN(C(=O)c2ccc(-c3ccc(Br)cc3)o2)CC1 = -9.02
CC(=O)c1cccc(NC(=O)c2cc(C)nn2-c2ccccc2)c1 = -12.6
COc1cccc(NC(=O)CSC2=Nc3ccccc3C3=NC(CC(=O)NC4CCCCC4)C(=O)N23)c1 (stereo not given) = 1.75
COc1ccc(C(=O)CSc2c(C(C)C)cnc3c2c(=O)n(C)c(=O)n3C)cc1 = -4.32
COc1ccc(CCN2C(=O)c3oc4cc(C)cc(C)c4c(=O)c3C2c2ccccc2F)cc1OC (stereo not given) = 4.42

Query: Would you kindly share the measured max response, negative = inhibition for O=C(O)c1ccccc1NC(=O)c1ccccc1-c1ccccc1C(=O)O ?
Response: -22.4

Query: Which max response, negative = inhibition is listed for CSc1ccccc1C(=O)NCc1ccccc1 ?
Response: 10.4

Query: Quick one: max response, negative = inhibition of CCOC(=O)c1ccc(-c2ccc(/C=C(\C#N)C(=O)Nc3ccc(OCC)cc3)o2)cc1 ?
Response: -4.51

Query: Could you tell me which max response, negative = inhibition is on file for NS(=O)(=O)c1ccc(NC2=CC(c3ccc(F)cc3)N(c3ccc(S(N)(=O)=O)cc3)C2=O)cc1 (stereo not given) ?
Response: 21.6

Query: Which max response, negative = inhibition is reported for this molecule? COc1cccc(C(=O)NCCS(=O)(=O)NCC2CCCO2)c1 (stereo not given)
Response: -19.7
